Where these numbers come from: PubChem BioAssay

Assay: VP16 transactivation inhibitors, counter-screen for SRC1 inhibitor project, cell-based, luminescence, high throughput (AID 588824)
Details: cell-based VP16 transactivation luciferase luminescence; at 3.6 µM
Calls of active or inactive are those of the source. Rule as the data show it: active = inhibition above about 25%; inactive = the rest.
Output constraint: value belongs to active, inactive

Before answering, review these 2 worked examples.
Compound	Category
COc1ccc(-n2nnnc2C(c2cccc(OC)c2OC)N2CCC(n3c(=O)[nH]c4ccccc43)CC2)cc1 (configuration not stated)	inactive
COc1ccc(-n2nnnc2C(c2cccc3ccccc23)N2CCC3(CC2)C(=O)NCN3c2ccccc2)cc1 (configuration not stated)	inactive

Check the results log: what was the call for `Cc1cccc(-n2c(C)nc3ccccc3c2=O)c1C` ? inactive

Check the results log: what was the call for CC1C(OC(=O)CCC(=O)NC(C)(C)CO)O[C@H]2OC3(C)CC[C@H]4[C@H](C)CCC1C24OO3 (some centres not stated) ? active

Check the results log: what was the call for `CNC(=O)c1cccn(Cc2cccc(C(F)(F)F)c2)c1=O` ? inactive

Check the results log: what was the call for C[C@]12CC[C@H](O)C[C@H]1CC[C@@H]1C2CC[C@]2(C)[C@@H](C3=CC(=O)OC3)[C@@H](O)C[C@]12O (some centres not stated) ? inactive

Check the results log: what was the call for `CCOc1ccc(-c2cc(C)[n+](CCN(CC)CC)c(-c3ccc(OCC)cc3)c2)cc1` ? active

Check the results log: what was the call for `COc1ccc(-[n+]2c(-c3ccccc3)cc(-c3ccc(C)cc3)cc2-c2ccccc2)cc1` ? active

----------
Target: Nuclear receptor coactivator 3 (Homo sapiens)
Experiment: SRC3 coactivator transcriptional activity inhibitors, confirmation, cell-based, luminescence, quadruplicate (AID 588792);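 also: 0% = DMSO treated cells and 100% = gossypol at 36 µM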
Settings: HEK293 GAL4-SRC3 luciferase reporter, at 3.6 µM, hits give high values
Outcome Measure: inhibition (%)
Give bare numbers, in %.

Compound	inhibition [%]
O=C1/C(=C/c2ccccc2)C[C@@]2(O)[C@H]3Cc4ccc(O)c5c4[C@@]2(CCN3CC2CC2)C1O5 (some centres undefined)	92.8

Okay, here is my list. What is inhibition for each of these?
1. CCCCCCCCCCCCn1ccc(=N)cc1
2. O=[N+]([O-])c1ccc(N2CCOCC2)c2c1no[n+]2[O-]
3. CCN(CCCl)c1cc(CN(C)C)cc(NC(=O)c2ccc(C(=O)Nc3cc(CN(C)C)cc(N(CC)CCCl)c3)cc2)c1
4. CC(=O)c1c(C)n(C2CCCCC2)c2ccc(O)cc12

[67.6, 82.4, 94.8, 81.2]

Okay, here is my list. What is inhibition for each of these?
1. CC/C(=N\Nc1ccccc1)c1c(O)[nH]c(=O)[nH]c1=O
2. CCOc1ccc(-c2c(C)n(-c3ccc(OCC)cc3)c3[n+]2CCCCC3)cc1
3. c1ccc(-c2[nH]c(-c3ccccc3)[n+](CC3CO3)c2-c2ccccc2)cc1 (centres undefined)

1. 14.7
2. 96.3
3. 13.4

# returns recorded inhibition (system: Nuclear receptor coactivator 3 (Homo sapiens)) for CC1=CC2/C=C(\C)CCC(O)C(O)/C=C/C(=O)C23C(=O)NC(CC(C)C)C3C1C (centres undefined) 36

----------
Assay: VP16 transactivation reporter inhibitors, counter-screen for LRH-1 inverse agonist project, cell-based, luminescence, high throughput (AID 651615)
Conditions: Gal4-VP16 luciferase reporter cells, at 3.6 µM, hits give high values
# binarize inhibition: threshold 70% inclusive, high side condition met, low side condition not met

Before answering, review these 3 worked examples.
Molecule	Category
CC(=O)OC1C(O)C(C)OC(OC2C(OC(=O)C3CCC4C(C3)OC3(CC(OC(=O)/C=C/c5ccccc5)C(C)CO3)C43CO3)OC(C)C(O)C2OC(C)=O)C1O (stereo unspecified)	condition met
CCN(CC)C1=NC(=[N+](CC)CC)c2ccccc21	condition met
CC(=O)OC1CC(OC2C(O)CC(OC3C(O)CC(OC4CCC5(C)C(CCC6C5CCC5(C)C(C7=CC(=O)OC7)CCC65O)C4)OC3C)OC2C)OC(C)C1OC1OC(CO)C(O)C(O)C1O (stereo unspecified)	condition met

I'd appreciate it if you could say whether `COc1ccc(-c2cc(-c3ccccc3)[n+](C)c(-c3ccccc3)c2)cc1` has inhibition at least equal to 70%. condition met

I'd appreciate it if you could say whether CC(=O)OC(C)(C)/C=C/C(=O)C(C)(O)C1C(O)CC2(C)C3CC=C4C(CC(O)C(=O)C4(C)C)C3(C)C(=O)CC12C (stereo unspecified) has inhibition at least equal to 70%. condition not met

I'd appreciate it if you could say whether CC(=O)OC1C2(CC3N4C(=O)C5(CO)SSC4(CC31O)C(=O)N5C)OC(C)C(C)(C)C2=O (stereo unspecified) has inhibition at least equal to 70%. condition met

I'd appreciate it if you could say whether NC(=S)c1cn(C2OC(CO)C(O)C2O)c2ncnc(N)c12 (stereo unspecified) has inhibition at least equal to 70%. condition met

I'd appreciate it if you could say whether COC(=O)C(C)Oc1cc(C)cc2oc(=O)c3c(c12)CCCC3 (stereo unspecified) has inhibition at least equal to 70%. condition not met

I'd appreciate it if you could say whether O=c1[nH]c2ccccc2n1C1CCN(C(c2ccccc2OC(F)(F)F)c2nnnn2-c2ccc3c(c2)OCCO3)CC1 (stereo unspecified) has inhibition at least equal to 70%. condition not met

I'd appreciate it if you could say whether O=C1NC2C(O)C(O)C(O)C(O)C2c2cc3c(c(O)c21)OCO3 (stereo unspecified) has inhibition at least equal to 70%. condition met
